# experiment: qHTS assay for identifying genotoxic compounds that show differential cytotoxicity against isogenic chicken DT40 cell lines with known DNA damage response pathways - Rad54/Ku70 mutant cell line (AID 743015); note: nearly all actives have a fitted effect of over 60% in size; note: potency is the fitted concentration of half-maximal effect
# condition description: DT40 Rad54/Ku70 mutant viability, CellTiter-Glo, 40 h; series mostly up to 66.8 µM
Records with an inconclusive call do not appear. Activity calls are given as the source filed them. Calls come from the whole dose curve; as a rule, active = well fitted cell-killing curve with a large enough effect in the repeat runs; inconclusive = weak or mixed curves; inactive = no such curve, though single readings can be large or run the other way.
measured metric: Potency

• CC(=O)OCC1=C(C(=O)O)N2C(=O)[C@@H](NC(=O)Cc3cccs3)[C@H]2SC1 = inactive
• CC(=O)CC(=O)Nc1ccc2[nH]c(=O)[nH]c2c1 = inactive
• CC(=O)OCCOCCOCCOC(C)=O = inactive
• CCC[C@H](N[C@@H](C)C(=O)N1[C@H](C(=O)O)C[C@@H]2CCCC[C@@H]21)C(=O)OCC = inactive
• CCN(CC)c1ccc2c(C)cc(=O)oc2c1 = 61.6 µM (active)
• CNC1(C)C2CCC(C2)C1(C)C (stereo unspecified) = inactive

###

# experiment: qHTS assay to identify small molecule antagonists of the estrogen related receptor signaling pathway with the pleiotropic PPARgamma coactivator (PGC) cell viability counter screen (AID 1224822;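 note: viability read after 17.5 h compound exposure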)
# condition description: ERR/PGC reporter cell line viability counter screen; series mostly up to 46.1 µM
Records with an inconclusive call do not appear. The source made the active and inactive calls. Calls come from the whole dose curve; as a rule, active = well fitted cell-killing curve with a large enough effect in the repeat runs; inconclusive = weak or mixed curves, or effect the other way; inactive = flat fitted curve, though single readings scatter.
Outcomes: label 1 (active), label 0 (inactive)

- Cc1scc2c1N(C(=O)CN1CCN(C)CC1)c1ccccc1NC2=O: label 0
- NC12CC3CC(CC(C3)C1)C2: label 0
- c1cnc2cc3c(cc2n1)C1CNCC3C1: label 0
- CC(=O)OCC1=C(C(=O)O)N2C(=O)[C@@H](NC(=O)Cc3cccs3)[C@H]2SC1: label 0
- CC(C)(C)NCC(O)c1cc(O)cc(O)c1 (configuration not stated): label 0
- NCCCCCC(=O)O: label 0
- [Cl][In]([Cl])[Cl]: label 0
- C1COC(NC(C2CC2)C2CC2)=N1: label 0
- NC(N)=NC(=O)Cc1c(Cl)cccc1Cl: label 0
- N[C@@H]1CONC1=O: label 0
- COc1nc(C)nc(Cl)c1NC1=NCCN1: label 0
- Cc1c(O)cccc1C(=O)N[C@@H](CSc1ccccc1)[C@H](O)CN1C[C@H]2CCCC[C@H]2C[C@H]1C(=O)NC(C)(C)C: label 1
- O=C1NCC2(CCN(CCc3ccccc3)CC2)O1: label 0
- Cc1ccc(-c2cc(C(F)(F)F)nn2-c2ccc(S(N)(=O)=O)cc2)cc1: label 0
- CCCNC(C)C(=O)Nc1ccccc1C (configuration not stated): label 0
- NC(=Nc1ccccc1)Nc1ccccc1: label 0
- CC(=O)N[C@@H](CS)C(=O)O: label 0

###

# experiment: qHTS assay to identify small molecule agonists of the sonic hedgehog signaling (Shh) pathway - cell viability counter screen (AID 1259366); note: nearly all actives have a fitted effect of over 50% in size
# condition description: NIH/3T3 Gli1-Luc viability, CellTiter-Fluor, 24 h; series mostly up to 92.4 µM
Records with an inconclusive call do not appear. Calls of active or inactive are those of the source. Calls follow the shape of the dose curve; as a rule, active = well fitted cell-killing curve with a large enough effect in the repeat runs; inconclusive = weak or mixed curves, or effect the other way; inactive = flat fitted curve, though single readings scatter.
Outcomes: Y for active, N for inactive

- Nc1nc2ccccc2[nH]1: N
- CCC(C)(C)C(=O)O[C@H]1C[C@@H](C)C=C2C=C[C@H](C)[C@H](CC[C@@H]3C[C@@H](O)CC(=O)O3)[C@H]21: N
- COc1ccc(COC(C)=O)cc1: N
- CCN(CC)C(=O)Nc1ccc(OCC(O)CNC(C)(C)C)c(C(C)=O)c1 (stereo unspecified): N
- Cc1occc(=O)c1OC(=O)C(C)C: N
- CC(C)CCOC(=O)c1ccc(N(C)C)cc1: N
- c1cc(C(c2ccc(OCC3CO3)cc2)C(c2ccc(OCC3CO3)cc2)c2ccc(OCC3CO3)cc2)ccc1OCC1CO1 (stereo unspecified): N
- C#CC(C)(CC)OC(=O)c1ccccc1C(=O)O (stereo unspecified): N
- COC(=O)[C@H]1[C@H]2C[C@@H]3c4[nH]c5cc(OC)ccc5c4CCN3C[C@H]2C[C@@H](OC(=O)c2cc(OC)c(OC)c(OC)c2)[C@@H]1OC: N
- c1ccc2c(c1)CCCC2C1=NCCN1 (stereo unspecified): N
- CC[C@H]1CN2CCc3cc(OC)c(OC)cc3[C@@H]2C[C@@H]1C[C@H]1NCCc2cc(OC)c(OC)cc21: Y
